Test description: Pharmacokinetics of acteoside and its metabolites in rat plasma after oral acteoside (UPLC-QqQ-MS)
Format: in vivo, male Sprague–Dawley rats
Measurement setup: male, Sprague-Dawley, rat, plasma, po, 100 mg/kg, acteoside in rat plasma, oral acteoside 100 mg/kg, UCP group, n = 6; read-out: MRT(0-t)
Assay readout: MRT last (h)
Give bare numbers, in h.

[in] I am curious: what MRT last value has been reported for C[C@@H]1O[C@@H](O[C@@H]2[C@@H](O)[C@H](OCCc3ccc(O)c(O)c3)O[C@H](CO)[C@H]2OC(=O)/C=C/c2ccc(O)c(O)c2)[C@H](O)[C@H](O)[C@H]1O [Acteoside, acteoside] ?
[out] 4.94

---

Test description: Pharmacokinetics of acteoside and its metabolites in rat plasma after oral acteoside (UPLC-QqQ-MS)
Assay type: in vivo, male Sprague–Dawley rats
Measurement setup: male, Sprague-Dawley, rat, plasma, po, 100 mg/kg, metabolite in rat plasma following oral acteoside 100 mg/kg, UCP group, n = 6; read-out: MRT(0-∞)
Please go through the items and note down their MRT inf.
Answers are plain numbers, in h.

compound="OCCc1ccc(O)c(O)c1 [Hydroxytyrosol, hydroxytyrosol]" measurement=1.46

Attention now shifts to the item below.
[in] I am curious: what MRT inf value has been reported for O=C(O)/C=C/c1ccc(O)c(O)c1 ?
[out] 2.18

---

Test description: Pharmacokinetics of acteoside and its metabolites in rat plasma after oral acteoside (UPLC-QqQ-MS)
Type: in vivo, male Sprague–Dawley rats
Measurement setup: male, Sprague-Dawley, rat, plasma, po, 100 mg/kg, metabolite in rat plasma following oral acteoside 100 mg/kg, Control group, n = 6; read-out: MRT(0-∞)
Assay readout: MRT inf (h)
Answers are plain numbers, in h.

molecule=O=C(O)/C=C/c1ccc(O)c(O)c1 assay_readout="MRT inf" measurement=2.51

[in] I am curious: what MRT inf value has been reported for OCCc1ccc(O)c(O)c1 [Hydroxytyrosol, hydroxytyrosol] ?
[out] 1.38

---

Test description: Pharmacokinetics of acteoside and its metabolites in rat plasma after oral acteoside (UPLC-QqQ-MS)
Format: in vivo, male Sprague–Dawley rats
Measurement setup: male, Sprague-Dawley, rat, plasma, po, 100 mg/kg, metabolite in rat plasma following oral acteoside 100 mg/kg, WCP group, n = 6; read-out: Cmax
Assay readout: Cmax (ng/mL)
Answers are plain numbers, in ng/mL.

compound=O=C(O)/C=C/c1ccc(O)c(O)c1 assay_readout=Cmax unit_symbol=ng/mL measurement=55.5

[in] I am curious: what Cmax value has been reported for OCCc1ccc(O)c(O)c1 [Hydroxytyrosol, hydroxytyrosol] ?
[out] 71.4

---

Test description: Pharmacokinetics of acteoside and its metabolites in rat plasma after oral acteoside (UPLC-QqQ-MS)
Type: in vivo, male Sprague–Dawley rats
Measurement setup: male, Sprague-Dawley, rat, plasma, po, 100 mg/kg, acteoside in rat plasma, oral acteoside 100 mg/kg, WCP group, n = 6; read-out: MRT(0-t)
Assay readout: MRT last (h)
Numbers only, in h.

[in] I am curious: what MRT last value has been reported for C[C@@H]1O[C@@H](O[C@@H]2[C@@H](O)[C@H](OCCc3ccc(O)c(O)c3)O[C@H](CO)[C@H]2OC(=O)/C=C/c2ccc(O)c(O)c2)[C@H](O)[C@H](O)[C@H]1O [Acteoside, acteoside] ?
[out] 5

---

Test description: Pharmacokinetics of acteoside and its metabolites in rat plasma after oral acteoside (UPLC-QqQ-MS)
Assay type: in vivo, male Sprague–Dawley rats
Measurement setup: male, Sprague-Dawley, rat, plasma, po, 100 mg/kg, acteoside in rat plasma, oral acteoside 100 mg/kg, WCP group (21 days WCP before), n = 6
Assay readout: AUC(0-t)
Write the numeric value and follow it with the unit.

[in] I am curious: what AUC(0-t) value has been reported for C[C@@H]1O[C@@H](O[C@@H]2[C@@H](O)[C@H](OCCc3ccc(O)c(O)c3)O[C@H](CO)[C@H]2OC(=O)/C=C/c2ccc(O)c(O)c2)[C@H](O)[C@H](O)[C@H]1O [Acteoside, acteoside] ?
[out] 6660 ng·h/mL
